Target: EGFR WT (Homo sapiens, UniProt P00533)
Sequence (P00533 25-1210): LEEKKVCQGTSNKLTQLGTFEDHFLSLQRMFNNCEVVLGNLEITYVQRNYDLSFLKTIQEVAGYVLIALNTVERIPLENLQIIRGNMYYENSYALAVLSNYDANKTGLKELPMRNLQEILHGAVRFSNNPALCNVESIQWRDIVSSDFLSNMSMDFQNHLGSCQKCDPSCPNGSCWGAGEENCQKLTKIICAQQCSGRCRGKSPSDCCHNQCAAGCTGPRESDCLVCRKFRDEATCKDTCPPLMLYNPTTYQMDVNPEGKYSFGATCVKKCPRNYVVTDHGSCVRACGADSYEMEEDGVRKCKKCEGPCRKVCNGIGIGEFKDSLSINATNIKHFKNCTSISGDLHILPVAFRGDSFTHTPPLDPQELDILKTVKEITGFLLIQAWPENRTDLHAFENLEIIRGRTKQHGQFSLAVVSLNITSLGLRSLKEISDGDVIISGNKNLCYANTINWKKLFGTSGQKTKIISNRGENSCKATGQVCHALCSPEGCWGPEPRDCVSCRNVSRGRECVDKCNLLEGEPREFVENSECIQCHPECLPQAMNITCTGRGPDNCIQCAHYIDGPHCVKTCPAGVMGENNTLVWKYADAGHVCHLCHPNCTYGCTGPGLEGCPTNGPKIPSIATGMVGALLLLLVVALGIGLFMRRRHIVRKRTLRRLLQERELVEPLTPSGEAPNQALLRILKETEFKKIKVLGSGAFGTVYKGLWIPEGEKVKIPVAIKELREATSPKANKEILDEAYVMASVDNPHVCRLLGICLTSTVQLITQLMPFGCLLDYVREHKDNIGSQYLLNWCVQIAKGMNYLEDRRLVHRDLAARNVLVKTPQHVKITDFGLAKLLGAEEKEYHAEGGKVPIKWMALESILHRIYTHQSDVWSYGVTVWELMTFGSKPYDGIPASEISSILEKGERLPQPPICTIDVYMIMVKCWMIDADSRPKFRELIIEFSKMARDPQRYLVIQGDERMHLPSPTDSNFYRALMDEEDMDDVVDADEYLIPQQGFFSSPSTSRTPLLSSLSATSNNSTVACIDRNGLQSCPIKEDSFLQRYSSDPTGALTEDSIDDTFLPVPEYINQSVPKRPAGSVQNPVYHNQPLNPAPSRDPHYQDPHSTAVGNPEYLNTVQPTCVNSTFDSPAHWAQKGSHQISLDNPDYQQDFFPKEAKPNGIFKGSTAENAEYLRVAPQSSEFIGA
measurement-type: IC50 (nM)

> print(dat)
                                   compound  value.unit  experimental.value
1  COc1cc(Nc2ncc(Br)c(Nc3ccc4nc(C5CC5)ccc4c3P(C)(C)=O)n2)c(C)cc1N1CCC(N(C)C)CC1 [Compound J-009]          nM                14.4

I. CCc1cc(Nc2ncc(Br)c(Nc3ccc4nc(-c5cnn(C)c5)ccc4c3P(C)(C)=O)n2)c(OC)cc1N1CCC(N2CCN(C)CC2)CC1 [Compound J-017]
II. CCc1cc(Nc2ncc(Br)c(Nc3ccc4nc(C5CC5)ccc4c3P(C)(C)=O)n2)c(OC)cc1N1CCC(N2CCN(C)CC2)CC1 [Compound J-018]
Query :: Would you let me know which has the greater IC50 value, I or II ? Answer format: the label of the selected item.
Result :: I
